Origin of measurements: ChEMBL document CHEMBL1156829

tested on: Plasmodium falciparum; assay: NOVARTIS: Inhibition of Plasmodium falciparum 3D7 (drug-susceptible) proliferation in erythrocyte-based infection assay; format: functional, organism-based; conditions: Plasmodium falciparum, 3D7
Field: EC50. Provide a value for each of the compounds that follow.

Would you kindly share the measured EC50 for CCOC(=O)C1(CC2CCCCO2)CCN(C(=O)Nc2cccc(SC)c2)CC1 (stereo not given) ? > 12500 nM

I am curious: what EC50 value has been reported for `COc1ccccc1NC(=O)c1n[nH]c(=O)c2ccccc12` ? > 1060 nM

Record request: EC50 value, item `CC1(C)CC(=O)c2cc(-c3ccc(Br)cc3)n(-c3ccccc3F)c2C1` > 972 nM

Tell me the measured EC50 of `COc1ccc(Cn2c(=S)[nH]c3ccsc3c2=O)cc1` , please. > 1430 nM

Look up EC50 for this compound: `COc1ccc(N(CC(=O)NCCc2ccc(F)cc2)S(=O)(=O)c2ccccc2)cc1` > 12500 nM
